- Tested on: sugar beet
- assay.name: Test B pre/postemergence sugar beet
- Assay type: in vivo, Beta vulgaris
- setup.conditions: Postemergence, Rate 250 g/ha; scale 0 to 10, 0 is no effect, 10 is complete control
Measured Plant response rating, Sugarbeets by item
reported.metric: Plant response rating, Sugarbeets

INSERT INTO measurements (molecule, reported_metric, recorded_value) VALUES
  ('CC(C)N(C(=O)n1oc(=O)n(N2CCOCC2)c1=O)c1ccc(F)cc1 [Compound 385]', 'Plant response rating, Sugarbeets', 0),
  ('CC(C)N(C(=O)n1oc(=O)n(C2(C)CC2)c1=O)c1ccc(F)cc1F [Compound 363]', 'Plant response rating, Sugarbeets', 3),
  ('CC1CC1n1c(=O)on(C(=O)N(c2ccc(F)cc2F)C(C)C)c1=O (centres unmarked) [Compound 372]', 'Plant response rating, Sugarbeets', 2),
  ('CC(C)N(C(=O)n1oc(=O)n(N2C(C)CCCC2C)c1=O)c1ccc(F)cc1F (centres unmarked) [Compound 383]', 'Plant response rating, Sugarbeets', 0),
  ('CC1CC1n1c(=O)on(C(=O)N(c2ccc(F)cc2)C(C)C)c1=O (centres unmarked) [Compound 371]', 'Plant response rating, Sugarbeets', 0);

###

Consider the following compounds and their measured Corn plant response rating readings.
- Test system: corn
- assay.name: Test B pre/postemergence corn
- Assay type: in vivo, Zea mays
- setup.conditions: Postemergence, Rate 62 g/ha; scale of 0 to 10, 0 is no effect, 10 is complete control
reported.metric: Corn plant response rating

INSERT INTO measurements (compound, reported_metric, recorded_value) VALUES
  ('CCOC(=O)C=C(Cn1c(=O)on(C(=O)N(c2ccc(Cl)cc2)C(C)C)c1=O)OCC [Compound 549]', 'Corn plant response rating', 0),
  ('CCC=CCn1c(=O)on(C(=O)N(c2ccc(F)cc2F)C(C)C)c1=O [Compound 523]', 'Corn plant response rating', 0),
  ('CC(C)N(C(=O)n1oc(=O)n(C[Si](C)(C)C)c1=O)c1ccc(Cl)cc1 [Compound 548]', 'Corn plant response rating', 0),
  ('CCCCCn1c(=O)on(C(=O)N(c2ccccc2)C(C)C)c1=O [Compound 557]', 'Corn plant response rating', 0),
  ('CC(C)N(C(=O)n1oc(=O)n(CC2CCC2)c1=O)c1ccc(Cl)cc1 [Compound 550]', 'Corn plant response rating', 0),
  ('C=CCCCn1c(=O)on(C(=O)N(c2ccccc2)C(C)C)c1=O [Compound 575]', 'Corn plant response rating', 0),
  ('CC(C)N(C(=O)n1oc(=O)n(CCC2OCCCO2)c1=O)c1ccc(Cl)cc1 [Compound 532]', 'Corn plant response rating', 2),
  ('CC(=O)OCCCCn1c(=O)on(C(=O)N(c2ccc(Cl)cc2)C(C)C)c1=O [Compound 536]', 'Corn plant response rating', 0),
  ('CC(C)N(C(=O)n1oc(=O)n(CCCF)c1=O)c1ccc(F)cc1F [Compound 500]', 'Corn plant response rating', 2);

###

- Test system: pigweed
- assay.name: Test B pre/postemergence pigweed
- Assay type: in vivo, Amaranthus retroflexus
- setup.conditions: Preemergence, Rate 62 g/ha; scale of 0 to 10 where 0 is no effect and 10 is complete control
reported.metric: Plant response rating, Redroot pigweed

INSERT INTO measurements (compound, recorded_value) VALUES
  ('CC[Si](C)(C)Cn1c(=O)on(C(=O)N(c2ccc(Cl)cc2)C(C)C)c1=O [Compound 460]', 0),
  ('CC(C)N(C(=O)n1oc(=O)n(COC(=O)C(C)(C)C)c1=O)c1ccc(F)cc1 [Compound 462]', 0),
  ('CC(C)N(C(=O)n1oc(=O)n(CC2CC2)c1=O)c1ccc(F)cc1F [Compound 509]', 0),
  ('CCC(=O)Cn1c(=O)on(C(=O)N(c2ccc(F)cc2F)C(C)C)c1=O [Compound 524]', 8),
  ('CC(C)N(C(=O)n1oc(=O)n(CCC#N)c1=O)c1ccc(Cl)cc1 [Compound 444]', 10),
  ('CC(=O)OCCCCn1c(=O)on(C(=O)N(c2ccc(F)cc2F)C(C)C)c1=O [Compound 506]', 2),
  ('CC(C)N(C(=O)n1oc(=O)n(CCCNC(=O)CCl)c1=O)c1ccccc1 [Compound 493]', 0),
  ('CCN(CC)C(=O)Cn1c(=O)on(C(=O)N(c2ccc(F)cc2F)C(C)C)c1=O [Compound 512]', 3),
  ('CC(C)N(C(=O)n1oc(=O)n(CO)c1=O)c1ccc(Cl)cc1 [Compound 457]', 0),
  ('CCC=CCn1c(=O)on(C(=O)N(c2ccc(F)cc2F)C(C)C)c1=O [Compound 523]', 2);
